assay: in vitro; conditions: human
Quantity measured: CC50

{"columns": ["Compound", "Quantity measured", "Observed result"],
 "data": [
  ["O=c1[nH]cc(Oc2ccc(Cl)cc2)c(=O)[nH]1", "CC50", "> 100 µM"],
  ["CCCCOc1ccc(Oc2c[nH]c(=O)[nH]c2=O)cc1", "CC50", "> 100 µM"],
  ["O=c1c(Oc2ccc(Cl)cc2)cn(C2C=CC(O)C2)c(=O)n1C1C=CC(O)C1 (racemic) [(±)-11c]", "CC50", "> 100 µM"],
  ["CCCCOc1ccc(Oc2cn(C3C=CC(O)C3)c(=O)[nH]c2=O)cc1 (racemic) [(±)-10b]", "CC50", "> 100 µM"]
]}

* * *

The reader will find reported EC50 values listed item by item below.
tested on: respiratory syncytial virus (RSV) strain A Long; assay: microbe, parasite or virus in culture; assay type: cell-based; settings: human respiratory syncytial virus, HEL 299, read-out: EC50 (μM) RSV A Long, HEL 299

{"columns": ["Molecule", "Test system", "EC50"],
 "data": [
  ["Cc1cc(C)cc(Oc2cn(C3C=CC(O)C3)c(=O)n(C3C=CC(O)C3)c2=O)c1 (racemic) [(±)-11a]", "respiratory syncytial virus (RSV) strain A Long", "28.7 µM"],
  ["CCC(CC)COC(=O)[C@H](C)N[P@](=O)(OC[C@H]1O[C@@](C#N)(c2ccc3c(N)ncnn23)[C@H](O)[C@@H]1O)Oc1ccccc1 [Remdesivir, reference compound]", "respiratory syncytial virus (RSV) strain A Long", "0.01 µM"],
  ["Cc1cc(C)cc(Oc2c[nH]c(=O)[nH]c2=O)c1", "respiratory syncytial virus (RSV) strain A Long", "> 100 µM"],
  ["CC(C)(C)c1ccc(Nc2c[nH]c(=O)[nH]c2=O)cc1", "respiratory syncytial virus (RSV) strain A Long", "> 100 µM"],
  ["CC(C)(C)c1ccc(Nc2cn(C3C=CC(O)C3)c(=O)n(C3C=CC(O)C3)c2=O)cc1 (racemic) [(±)-4e]", "respiratory syncytial virus (RSV) strain A Long", "> 100 µM"],
  ["O=c1[nH]c(=O)n(C2C=CC(O)C2)cc1Oc1ccc(Cl)cc1 (racemic) [(±)-10c]", "respiratory syncytial virus (RSV) strain A Long", "> 100 µM"],
  ["O=c1[nH]c(=O)n(C2C=CC(O)C2)cc1N1CCN(c2ccccc2)CC1 (racemic) [(±)-3b]", "respiratory syncytial virus (RSV) strain A Long", "> 100 µM"]
]}

* * *

system: HCoV-OC43; experiment: Antiviral cytopathicity assay, HCoV-OC43 in HEL 299 cells; format: cell-based; settings: Betacoronavirus 1, OC43, HEL 299, read-out: EC50 (μM) HCoV-OC43, HEL 299

{"columns": ["Molecule", "Test system", "EC50"],
 "data": [
  ["CC(C)(C)c1ccc(Nc2cn(C3C=CC(O)C3)c(=O)[nH]c2=O)cc1 (racemic) [(±)-3e]", "HCoV-OC43", "> 100 µM"],
  ["Cc1cc(C)cc(Oc2cn(C3C=CC(O)C3)c(=O)[nH]c2=O)c1 (racemic) [(±)-10a]", "HCoV-OC43", "> 100 µM"],
  ["O=c1[nH]c(=O)n(C2C=CC(O)C2)cc1Oc1ccc(Cl)cc1 (racemic) [(±)-10c]", "HCoV-OC43", "> 100 µM"],
  ["CCC(CC)COC(=O)[C@H](C)N[P@](=O)(OC[C@H]1O[C@@](C#N)(c2ccc3c(N)ncnn23)[C@H](O)[C@@H]1O)Oc1ccccc1 [Remdesivir, reference compound]", "HCoV-OC43", "0.03 µM"],
  ["CCCCCCCc1ccc(Nc2cn(C3C=CC(O)C3)c(=O)n(C3C=CC(O)C3)c2=O)cc1 (racemic) [(±)-4f]", "HCoV-OC43", "> 100 µM"],
  ["CCCCCCc1ccc(Nc2cn(C3C=CC(O)C3)c(=O)n(C3C=CC(O)C3)c2=O)cc1 (racemic) [(±)-4d]", "HCoV-OC43", "28.7 µM"],
  ["CC(C)(C)c1ccc(Oc2cn(C3C=CC(O)C3)c(=O)[nH]c2=O)cc1 (racemic) [(±)-10d]", "HCoV-OC43", "> 100 µM"],
  ["CCCCCCCOc1ccc(Nc2cn(C3C=CC(O)C3)c(=O)[nH]c2=O)cc1 (racemic) [(±)-3i]", "HCoV-OC43", "36.8 µM"],
  ["Cc1cc(C)cc(Oc2cn(C3C=CC(O)C3)c(=O)n(C3C=CC(O)C3)c2=O)c1 (racemic) [(±)-11a]", "HCoV-OC43", "29.8 µM"],
  ["CC(C)c1ccc(Nc2cn(C3C=CC(O)C3)c(=O)[nH]c2=O)cc1 (racemic) [(±)-3g]", "HCoV-OC43", "> 100 µM"],
  ["CCCCOc1ccc(Oc2cn(C3C=CC(O)C3)c(=O)[nH]c2=O)cc1 (racemic) [(±)-10b]", "HCoV-OC43", "> 100 µM"]
]}
